# System: Pseudomonus aeruginosa NCTC-10490
# protocol.notes: In vitro antibacterial activity, two-fold agar-plate dilution method
# Assay type: cell-based
# measurement.setup: HI-agar, 37° C., 20 hours
property.name: MIC (µg/mL)
Could you give me the number in µg/mL? Just the number is fine.

Consider the worked cases shown below.
compound	test.target	value.units	MIC
CO/N=C(\C(=O)NC1C(=O)N2C(C(=O)O)=C(CSc3nncs3)CSC12)c1nc(N)sc1Br (centres unmarked) [compound 1]	Pseudomonus aeruginosa NCTC-10490	µg/mL	3.13
CO/N=C(\C(=O)NC1C(=O)N2C(C(=O)O)=C(CSc3nnnn3C)CSC12)c1nc(N)sc1Br (centres unmarked) [compound 3]	Pseudomonus aeruginosa NCTC-10490	µg/mL	3.13
CO/N=C(\C(=O)NC1C(=O)N2C(C(=O)O)=C(CSc3nnc(C)s3)CSC12)c1nc(N)sc1Br (centres unmarked) [compound 2]	Pseudomonus aeruginosa NCTC-10490	µg/mL	6.25
CO/N=C(\C(=O)NC1C(=O)N2C(C(=O)O)=C(CSc3nncs3)CSC12)c1nc(N)sc1Cl (centres unmarked) [compound 5]	Pseudomonus aeruginosa NCTC-10490	µg/mL	1.56

Here's the next entry for you.
Annotate the compound CO/N=C(\C(=O)NC1C(=O)N2C(C(=O)O)=C(COC(=O)c3ccccc3)CSC12)c1nc(N)sc1Br (centres unmarked) [compound 4] with its measured MIC.
6.25

---

Each entry below carries its measured MIC, system: Proteus mirabilis 18.
Could you give me the number in µg/mL? Just the number is fine.

compound	MIC (µg/mL)
CO/N=C(\C(=O)NC1C(=O)N2C(C(=O)O)=C(COC(=O)c3ccccc3)CSC12)c1nc(N)sc1Br (centres unmarked)	3.13

Annotate the compound CO/N=C(\C(=O)NC1C(=O)N2C(C(=O)O)=C(CSc3nncs3)CSC12)c1nc(N)sc1Br (centres unmarked) with its measured MIC.
0.78

Annotate the compound CO/N=C(\C(=O)NC1C(=O)N2C(C(=O)O)=C(CSc3nnnn3C)CSC12)c1nc(N)sc1Br (centres unmarked) with its measured MIC.
3.13

Annotate the compound CO/N=C(\C(=O)NC1C(=O)N2C(C(=O)O)=C(CSc3nncs3)CSC12)c1nc(N)sc1Cl (centres unmarked) with its measured MIC.
0.78

Annotate the compound CO/N=C(\C(=O)NC1C(=O)N2C(C(=O)O)=C(CSc3nnc(C)s3)CSC12)c1nc(N)sc1Br (centres unmarked) with its measured MIC.
6.25

---

# Tested on: Klebsiella pneumoniae 20
property.name: MIC

molecule	test.target	MIC
CO/N=C(\C(=O)NC1C(=O)N2C(C(=O)O)=C(CSc3nnnn3C)CSC12)c1nc(N)sc1Br (centres unmarked)	Klebsiella pneumoniae 20	0.39 µg/mL
CO/N=C(\C(=O)NC1C(=O)N2C(C(=O)O)=C(CSc3nnc(C)s3)CSC12)c1nc(N)sc1Br (centres unmarked)	Klebsiella pneumoniae 20	3.13 µg/mL
CO/N=C(\C(=O)NC1C(=O)N2C(C(=O)O)=C(COC(=O)c3ccccc3)CSC12)c1nc(N)sc1Br (centres unmarked)	Klebsiella pneumoniae 20	1.56 µg/mL
CO/N=C(\C(=O)NC1C(=O)N2C(C(=O)O)=C(CSc3nncs3)CSC12)c1nc(N)sc1Cl (centres unmarked)	Klebsiella pneumoniae 20	0.39 µg/mL

Here's the next entry for you.
# return MIC for CO/N=C(\C(=O)NC1C(=O)N2C(C(=O)O)=C(CSc3nncs3)CSC12)c1nc(N)sc1Br (centres unmarked) , test system: Klebsiella pneumoniae 20
0.78 µg/mL
